Test system: 883617-216-R-J1-PDC complex spheroid viability;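 note: exposure lasted seven days after three days of spheroid growth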
Test: Anticancer human tumor 883617-216-R-J1-PDC patient-derived bladder carcinoma cell line growth inhibition; active = viability on the fitted dose curve at most 10% of control; inactive = the rest
Conditions: second compound 1 µM; first compound 0.00316 µM
# output must be one of active, inactive

* Nc1ncn(C2CC(O)C(CO)O2)c(=O)n1 (centres undefined) + NC1CC1c1ccc(-c2cccc(O)c2)cc1 | inactive

// query Write down the call the test reported for this compound. Item: COc1cc(Nc2ncc3c(n2)-c2ccc(Cl)cc2C(c2c(F)cccc2OC)=NC3)ccc1C(=O)O + NC1CCC(NC2CC2c2ccccc2)CC1
// result inactive

// query Write down the call the test reported for this compound. Item: COc1cc(Nc2ncc3c(n2)-c2ccc(Cl)cc2C(c2c(F)cccc2OC)=NC3)ccc1C(=O)O + NC1CC1c1ccc(-c2cccc(O)c2)cc1
// result inactive

// query Write down the call the test reported for this compound. Item: CC[C@@]1(O)C(=O)OCc2c1cc1n(c2=O)Cc2cc3c(CN(C)C)c(O)ccc3nc2-1 + NC1CC1c1ccc(-c2cccc(O)c2)cc1
// result inactive

// query Write down the call the test reported for this compound. Item: CC(C)CC(NC(=O)C(Cc1ccccc1)NC(=O)c1cnccn1)B(O)O (centres undefined) + NC1CC1c1ccc(-c2cccc(O)c2)cc1
// result active

// query Write down the call the test reported for this compound. Item: O=C(C=Cn1cnc(-c2cc(C(F)(F)F)cc(C(F)(F)F)c2)n1)NNc1cnccn1 + NC1CCC(NC2CC2c2ccccc2)CC1
// result inactive

// query Write down the call the test reported for this compound. Item: Nc1ncn(C2CC(O)C(CO)O2)c(=O)n1 (centres undefined) + NC1CCC(NC2CC2c2ccccc2)CC1
// result inactive

// query Write down the call the test reported for this compound. Item: CC1COCCN1c1cc(-c2ccnn2C)c2ccnc(-c3ccn[nH]3)c2n1 (centres undefined) + NC1CCC(NC2CC2c2ccccc2)CC1
// result inactive

// query Write down the call the test reported for this compound. Item: CC(C)CC(NC(=O)C(Cc1ccccc1)NC(=O)c1cnccn1)B(O)O (centres undefined) + NC1CCC(NC2CC2c2ccccc2)CC1
// result inactive
